These measurements were taken from paper PMC9816194.

- targetUnderTest: human 5-HT2A receptor (Homo sapiens, UniProt P28223)
- Sequence (P28223 whole entry): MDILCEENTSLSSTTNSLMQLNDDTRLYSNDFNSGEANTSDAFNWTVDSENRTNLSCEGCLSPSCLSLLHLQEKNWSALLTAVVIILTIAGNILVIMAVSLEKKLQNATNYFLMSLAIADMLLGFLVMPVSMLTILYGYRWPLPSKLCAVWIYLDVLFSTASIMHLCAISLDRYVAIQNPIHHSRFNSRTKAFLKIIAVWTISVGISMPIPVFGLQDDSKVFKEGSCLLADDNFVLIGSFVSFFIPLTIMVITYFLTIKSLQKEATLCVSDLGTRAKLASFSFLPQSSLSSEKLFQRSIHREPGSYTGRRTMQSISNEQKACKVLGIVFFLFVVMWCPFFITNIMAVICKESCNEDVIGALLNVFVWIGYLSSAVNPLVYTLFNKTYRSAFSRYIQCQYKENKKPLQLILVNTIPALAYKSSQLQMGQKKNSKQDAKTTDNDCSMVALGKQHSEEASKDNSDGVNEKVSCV
- protocol: Agonist activity at the 5-HT2A receptor, FLIPR calcium flux in NIH-3T3 cells
- Protocol: NIH-3T3 cells stably expressing the human 5-HT2A receptor were incubated in HEPES-Hank’s Balanced Salt Solution (HBSS) buffer (Gibco, Zug, Switzerland; 70,000 cells/100 μL) for 1 h at 37 °C in poly-D-lysine-coated 96-well plates. Thereafter, 100 μL of dye solution (fluorescence imaging plate reader [FLIPR] calcium 5 assay kit dye solution; Molecular Devices, Sunnyvale, CA, USA) was added to each well and the plates were incubated for 1 h at 37 °C. […]
EC50 for assorted compounds
Field format: number, assumed nM, no unit text.

INSERT INTO assay_data (compound, targetundertest, measuredquantity, recordedvalue) VALUES
  ('COc1cc(SCCF)c(OC)cc1CCN.Cl', 'human 5-HT2A receptor (Homo sapiens, UniProt P28223)', 'EC50', 9.7);

query: Requested read-out: EC50. Entry: COc1cc(SC)c(OC)cc1CC(C)N.Cl (centres unmarked)
result: 10.3
